Reference source for all entries: paper PMC8330636

target: OXA-48 (Klebsiella pneumoniae, UniProt Q6XEC0); construct: purified recombinant; class D serine beta-lactamase; construct details only in ESI; experiment: inhibition of purified recombinant enzyme; format: biochemical; settings: read-out: Class D OXA-48
Sequence (Q6XEC0 23-265 limits assumed): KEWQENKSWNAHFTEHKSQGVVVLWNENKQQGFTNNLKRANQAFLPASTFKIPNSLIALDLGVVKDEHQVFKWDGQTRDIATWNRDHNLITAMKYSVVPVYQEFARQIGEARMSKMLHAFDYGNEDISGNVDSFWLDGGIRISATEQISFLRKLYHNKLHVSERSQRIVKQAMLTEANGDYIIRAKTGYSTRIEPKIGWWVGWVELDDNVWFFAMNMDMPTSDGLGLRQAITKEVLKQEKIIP
Simple rule here: IC50 less than 10 µM is t, otherwise f.

{"molecule": "C=C(C(=O)O)[C@H]1OB(O)c2ccc(F)cc21 [(S)-4f]", "category": "f"}
{"molecule": "C=C(C(=O)O)[C@@H]1OB(O)c2cc(F)ccc21 [(R)-4j]", "category": "t"}
{"molecule": "C=C(C(=O)O)[C@H]1OB(O)c2cc(Oc3ccc(OC)cc3)ccc21 [(S)-4q]", "category": "t"}
{"molecule": "C=C(C(=O)O)[C@H]1OB(O)c2cc(F)ccc21 [(S)-4j]", "category": "f"}
{"molecule": "C=C(C(=O)O)[C@H]1OB(O)c2ccc(OC)cc21 [(S)-4c]", "category": "f"}
{"molecule": "C=C(C(=O)O)[C@@H]1OB(O)c2ccccc21 [(R)-4a]", "category": "f"}
{"molecule": "C=C(C(=O)O)[C@H]1OB(O)c2ccccc21 [(S)-4a]", "category": "f"}
{"molecule": "C=C(C(=O)O)[C@@H]1OB(O)c2cc(Oc3ccc(OC)cc3)ccc21 [(R)-4q]", "category": "t"}
{"molecule": "C=C(C(=O)O)[C@@H]1OB(O)c2ccc(OC)cc21 [(R)-4c]", "category": "f"}

###

biological target: OXA-48 (Klebsiella pneumoniae, UniProt Q6XEC0); construct: purified recombinant; class D serine beta-lactamase; construct details only in ESI; experiment: biochemical; design: inhibition of purified recombinant beta-lactamases, IC50; conditions: read-out: Class D OXA-48
pIC50: −log10 of the molar value.

{"compound": "C=C(C(=O)O)[C@@H]1OB(O)c2ccc(Oc3cccc(C)c3)cc21 [(R)-4n]", "pIC50": 5.39}
{"compound": "C=C(C(=O)O)[C@@H]1OB(O)c2cc(Oc3ccc(Cl)cc3)ccc21 [(R)-4s]", "pIC50": 6.07}
{"compound": "C=C(C(=O)O)[C@@H]1OB(O)c2cc(Oc3ccc([N+](=O)[O-])cc3)ccc21 [(R)-4r]", "pIC50": 5.58}
{"compound": "C=C(C(=O)O)[C@@H]1OB(O)c2cc(OCc3ccccc3)ccc21 [(R)-4t]", "pIC50": 5.88}
{"compound": "C=C(C(=O)O)[C@@H]1OB(O)c2ccc(Oc3ccc(C(F)(F)F)cc3)cc21 [(R)-4o]", "pIC50": 5.11}
{"compound": "C=C(C(=O)O)[C@@H]1OB(O)c2ccc(OCc3ccccc3)cc21 [(R)-4p]", "pIC50": 5.12}
{"compound": "C=C(C(=O)O)[C@@H]1OB(O)c2ccc(Oc3ccc(C)cc3)cc21 [(R)-4m]", "pIC50": 5.20}
